test system: Pseudomonas aeruginosa; test: Antibacterial activity against Pseudomonas aeruginosa ATCC 27853 assessed as inhibition of bacterial growth incubated for 18 hrs by two fold broth microdilution assay; format: functional
Rule: MIC below 30 µg/mL gives yes (1), anything at or above gives no (0).

Before answering, review these 3 worked examples.
{"Smiles string": "CCCCCn1cc(/C=C(\\C#N)S(=O)(=O)c2ccc(N)cc2)c2ccccc21", "Class label": "no (0)"}
{"Smiles string": "N#C/C(=C\\c1cn(Cc2cccc(F)c2)c2ccccc12)S(=O)(=O)c1ccc(N)cc1", "Class label": "no (0)"}
{"Smiles string": "CN(C)CCn1cc(/C=C(\\C#N)S(=O)(=O)c2ccc(N)cc2)c2ccccc21", "Class label": "no (0)"}

Check if MIC falls below 30 µg/mL for "CCOC(=O)Cn1cc(/C=C(\C#N)S(=O)(=O)c2ccc(NC(C)=O)cc2)c2ccccc21" .
no (0)

Check if MIC falls below 30 µg/mL for "N#C/C(=C\c1cn(CCO)c2ccccc12)S(=O)(=O)c1ccc(N)cc1" .
yes (1)

Check if MIC falls below 30 µg/mL for "CC(=O)Nc1ccc(S(=O)(=O)/C(C#N)=C/c2cn(CC(=O)N3CCCC3)c3ccccc23)cc1" .
no (0)

Check if MIC falls below 30 µg/mL for "C=CCn1cc(/C=C(\C#N)S(=O)(=O)c2ccc(N)cc2)c2ccccc21" .
yes (1)
